# test-target: Tat-TAR transcription complex (Human immunodeficiency virus type 1 group M subtype B)
# Sequence (P69697 whole entry, one chain of several): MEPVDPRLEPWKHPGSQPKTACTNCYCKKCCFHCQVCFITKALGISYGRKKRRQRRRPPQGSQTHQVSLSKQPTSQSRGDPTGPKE
# assay-info: Retardation gel, affinity for Tat-TAR complex
# experimental-context: retardation gel; 400 nM Tat, 200 nM TAR, 1.5 h at 25° C.
pKd: −log10 of the molar value.

- molecule: "COc1cc(C(=O)Nc2cc(-c3nc4ccccc4[nH]3)ccc2C)ccc1OCc1ccc(Cl)cc1 [Compound (2)]"
  pKd: "~7.10"

----------
# test-target: Tat protein (86 residues, isolate BH10) (Human immunodeficiency virus type 1 group M subtype B, UniProt P69697)
# Construct: The recombinant Tat protein (86 residues, isolate BH10); made in house; host or cells: E. coli
# assay-info: Surface plasmon resonance (Biacore) on immobilized Tat
# Format: binding, HIV-1
experimental-endpoint: Kd

- compound-structure-string: "COc1cc(C(=O)Nc2cc(-c3nc4ccccc4[nH]3)ccc2C)ccc1OCc1ccc(Cl)cc1"
  experimental-endpoint: "Kd"
  result: "~4 µM"

# credit: patent US20230172913A1
